experimentalTarget: T1, monomeric human sBCMA (Homo sapiens, UniProt Q02223)
T1 construct: is comprised of the entire extracellular domain of the molecule; purchased GenScript
T1 sequence (Q02223 1-54 limits assumed): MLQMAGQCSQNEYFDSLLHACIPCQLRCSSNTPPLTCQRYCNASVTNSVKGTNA
test: Kinetics/affinity measurement by SPR (BioRad ProteOn XPR36), antibody captured by anti-Fc, sBCMA flowed over
Assay type: binding
cond: sBCMA 100-6.25 nM
measuredMetric: Kon
The response must contain the number and no unit.

Query Kon for N22: lead optimized clone of 15B2GL; VH SEQ ID NO: 17, VL SEQ ID NO: 18 (antibody, V domains shown) VH: EVQLVESGGGLVKPGGSLRLSCAASGFTFSSYSMNWVRQAPGKGLEWVSSISGSSNYIYYADSVKGRFTISRDNAKNSLYLQMNSLRAEDTAVYYCARGGNYFVEYFQYWGQGTLVTVSS VL: EIVLTQSPGTLSLSPGERATLSCRASQYISSNYLAWYQQKPGQAPRLLIYGASNRATGIPDRFSGSGSGTDFTLTISRLEPEDFAVYYCQQYSSSPITFGQGTKLEIK
5.36E+05
